Where do these numbers come from? They come from patent US20210087172A1.

Target: FXIIa alpha (Human) (Homo sapiens)
Sequence (P00748 373-615 limits assumed): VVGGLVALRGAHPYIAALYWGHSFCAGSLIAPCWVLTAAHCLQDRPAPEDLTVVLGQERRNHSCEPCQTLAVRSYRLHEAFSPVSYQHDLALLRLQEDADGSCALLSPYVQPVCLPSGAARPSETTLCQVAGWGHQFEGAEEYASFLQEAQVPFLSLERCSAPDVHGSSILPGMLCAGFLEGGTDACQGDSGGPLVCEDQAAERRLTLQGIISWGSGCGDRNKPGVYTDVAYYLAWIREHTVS
Sequence (P00748 20-372 partner limits assumed): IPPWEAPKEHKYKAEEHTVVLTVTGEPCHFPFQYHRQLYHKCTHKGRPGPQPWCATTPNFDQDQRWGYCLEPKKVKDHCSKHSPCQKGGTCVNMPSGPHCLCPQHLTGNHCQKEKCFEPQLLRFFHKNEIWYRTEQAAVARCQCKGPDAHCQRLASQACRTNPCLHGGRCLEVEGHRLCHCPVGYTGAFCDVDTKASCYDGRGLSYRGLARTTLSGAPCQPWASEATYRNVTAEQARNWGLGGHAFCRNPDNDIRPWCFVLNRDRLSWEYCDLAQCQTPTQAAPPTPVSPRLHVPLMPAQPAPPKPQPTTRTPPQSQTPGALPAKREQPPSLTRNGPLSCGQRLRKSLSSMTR
Hi there, I'd appreciate the recorded Ki for every entry that follows.

Working through the 7 compounds below one at a time, give Ki for each.
1. NCc1ccc(CNC(=O)C2CN(S(=O)(=O)CCc3ccccc3)CCN2C(=O)C(N)CCc2ccccc2)cc1 (stereo not shown)
2. N[C@H](CCC(=O)N1CCCC1)C(=O)N1CCN(C(=O)OCc2ccccc2)C[C@H]1C(=O)NCc1ccc2[nH]cnc2c1
3. Cn1nnc2cc(CNC(=O)C3CN(c4ncccn4)CCN3C(=O)C(N)CCc3ccccc3)ccc21 (stereo not shown)
4. O=C(NCc1cc2ccncc2[nH]1)[C@@H]1CN(C(=O)OCc2ccccc2)CCN1C(=O)[C@H]1C[C@@H](c2ccccc2)CN1
5. NCc1ccc(CNC(=O)C2CN(C(=O)NCc3ccccc3)CCN2C(=O)C(N)CCc2ccccc2)cc1 (stereo not shown)
6. NCc1ccc(CNC(=O)[C@@H]2CN(C(=O)OCc3ccccc3)CCN2C(=O)[C@H](N)CCc2ccccc2)cc1
7. Cn1nnc2cc(CNC(=O)[C@@H]3CN(C(=O)OCc4ccccc4)CCN3C(=O)[C@H]3C[C@@H](c4ccccc4)CN3)ccc21

1. > 2 µM
2. > 2 µM
3. > 2 µM
4. 0.2 to 2 µM
5. > 2 µM
6. > 2 µM
7. > 2 µM

----------
Lab note: pKi readings collected with FXIIa alpha (Human) (Homo sapiens) for the following compounds.
pKi: −log10 of the molar value.

What value of pKi has been recorded for this entry: Nc1cc(CNC(=O)[C@@H]2CN(C(=O)OCc3ccccc3)CCN2C(=O)[C@H](N)CCC(=O)N2CCCC2)ccn1
5.70 to 6.70

Working through the 2 compounds below one at a time, give pKi for each.
1. Nc1cc(CNC(=O)[C@@H]2CN(C(=O)OCc3ccccc3)CCN2C(=O)[C@H](N)CCc2ccccc2)ccn1
2. N[C@H](CCC(=O)N1CCCC1)C(=O)N1CCN(C(=O)OCc2ccccc2)C[C@H]1C(=O)NCc1cc2cnccc2[nH]1

["< 5.70", "> 6.70"]

----------
Molecular target: FXIIa alpha (Human) (Homo sapiens, UniProt P00748)
Sequence (P00748 373-615 limits assumed): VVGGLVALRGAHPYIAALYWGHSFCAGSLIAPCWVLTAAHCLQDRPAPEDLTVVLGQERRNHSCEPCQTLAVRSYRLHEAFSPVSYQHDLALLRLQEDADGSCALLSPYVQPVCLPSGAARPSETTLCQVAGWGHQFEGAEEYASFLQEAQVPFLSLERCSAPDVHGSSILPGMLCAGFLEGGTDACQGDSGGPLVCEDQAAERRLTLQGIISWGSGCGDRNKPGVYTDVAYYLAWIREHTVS
Sequence (P00748 20-372 partner limits assumed): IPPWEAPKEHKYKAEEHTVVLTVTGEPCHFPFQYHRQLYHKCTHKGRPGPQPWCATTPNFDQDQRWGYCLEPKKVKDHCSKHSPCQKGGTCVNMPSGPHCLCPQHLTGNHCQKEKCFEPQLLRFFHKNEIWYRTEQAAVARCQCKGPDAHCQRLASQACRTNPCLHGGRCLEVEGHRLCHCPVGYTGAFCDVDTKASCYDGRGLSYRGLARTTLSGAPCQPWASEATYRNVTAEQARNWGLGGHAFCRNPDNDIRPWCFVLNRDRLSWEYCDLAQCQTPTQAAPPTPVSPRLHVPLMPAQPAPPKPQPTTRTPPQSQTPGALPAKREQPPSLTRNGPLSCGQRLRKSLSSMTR
pKi: −log10 of the molar value.
PROPERTY: pKi

Solved entries (count: 2):
What value of pKi has been recorded for this entry: Cc1cc(CNC(=O)[C@@H]2CN(C(=O)OCc3ccccc3)CCN2C(=O)[C@H](N)CCc2ccccc2)cc(N)n1
< 5.70

Also need Cn1nnc2cc(CNC(=O)[C@@H]3CN(C(=O)OCc4ccccc4)CCN3C(=O)[C@H](N)CCC(=O)N3CCCC3)ccc21 , thanks.
< 5.70

Next, consider the following molecule.
What value of pKi has been recorded for this entry: Cn1ccnc1COC(=O)N1CCN(C(=O)C(N)CCc2ccccc2)C(C(=O)NCc2ccc3c(c2)nnn3C)C1 (stereo not drawn)
< 5.70

----------
Target: FXIIa alpha (Human) (Homo sapiens)
Sequence (P00748 373-615 limits assumed): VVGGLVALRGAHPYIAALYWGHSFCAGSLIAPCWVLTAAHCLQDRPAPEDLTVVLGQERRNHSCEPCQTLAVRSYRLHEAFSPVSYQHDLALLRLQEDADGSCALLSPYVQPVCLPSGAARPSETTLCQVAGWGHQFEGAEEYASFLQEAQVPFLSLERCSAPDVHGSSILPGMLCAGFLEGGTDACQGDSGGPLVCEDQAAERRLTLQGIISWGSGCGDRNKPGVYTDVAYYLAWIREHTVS
Sequence (P00748 20-372 partner limits assumed): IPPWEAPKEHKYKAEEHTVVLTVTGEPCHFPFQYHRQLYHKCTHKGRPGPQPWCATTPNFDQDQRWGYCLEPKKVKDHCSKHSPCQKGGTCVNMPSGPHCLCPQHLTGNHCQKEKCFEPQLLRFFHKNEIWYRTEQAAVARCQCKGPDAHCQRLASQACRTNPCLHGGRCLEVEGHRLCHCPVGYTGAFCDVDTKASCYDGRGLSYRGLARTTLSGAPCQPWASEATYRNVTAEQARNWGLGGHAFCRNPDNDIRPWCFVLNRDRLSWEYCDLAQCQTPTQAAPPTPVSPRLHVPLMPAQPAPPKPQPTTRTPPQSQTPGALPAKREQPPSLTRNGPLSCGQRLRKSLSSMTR
PROPERTY: Ki

What value of Ki has been recorded for this entry: N[C@H](CCC(=O)N1CCCC1)C(=O)N1CCN(C(=O)OCc2ccccc2)C[C@H]1C(=O)NCc1cc2ccncc2[nH]1
200 to 2000 nM

Also need NC(CCC(=O)N1CCCC1)C(=O)N1CCN(C(=O)OCc2ccccc2)CC1C(=O)NCc1ccnc(O)c1 (stereo not drawn) , thanks.
> 2000 nM

Next, consider the following molecule.
What value of Ki has been recorded for this entry: CN(C)[C@H](CCC(=O)N1CCCC1)C(=O)N1CCN(C(=O)OCc2ccccc2)C[C@H]1C(=O)NCc1ccc2[nH]cnc2c1
> 2000 nM
